- subject.of.test: CHO-CHOP luciferase reporter, UPR activation, luminescence
- experiment.description: CHOP luciferase reporter activation – CHO-CHOP cells, luminescence, SAR follow-up (AID 540312)
Calls of active or inactive are those of the source.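 The calls were made as follows: active = mean EC50 of 20 µM or lower; inactive = the rest.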
Labels: y (active), n (inactive)

- compound: "O=C(Nc1nc2c(F)cc(F)cc2s1)c1ccncc1"
  answer.label: "n"
- compound: "CC1CN(S(=O)(=O)c2ccc(NC(=O)c3ccco3)cc2)CC(C)O1 (stereo unspecified)"
  answer.label: "n"
- compound: "O=C(Nc1ccc(S(=O)(=O)N2CCC(O)CC2)cc1)c1ccc([N+](=O)[O-])o1"
  answer.label: "y"
- compound: "O=C(Nc1nc2ccccc2s1)c1cccnc1"
  answer.label: "n"
- compound: "O=C(Nc1cccc(S(=O)(=O)N2CCOCC2)c1)c1ccco1"
  answer.label: "n"
- compound: "Fc1cc(F)c2nc(NCc3ccccn3)sc2c1"
  answer.label: "n"
- compound: "CC1(C)CCN(S(=O)(=O)c2ccc(NC(=O)c3ccc([N+](=O)[O-])o3)cc2)CC1"
  answer.label: "y"
- compound: "O=C(Nc1ccc(S(=O)(=O)N2CCOCC2)cc1)c1ccco1"
  answer.label: "n"
- compound: "O=C(Nc1ccc(S(=O)(=O)C2CCCCC2)cc1)c1ccc([N+](=O)[O-])o1"
  answer.label: "y"
- compound: "O=C(Nc1ccc(S(=O)(=O)N2CCOCC2)cc1)c1ccccc1"
  answer.label: "n"
- compound: "O=C(Nc1ccc(S(=O)(=O)N2CCOCC2)cc1)c1ccc([N+](=O)[O-])s1"
  answer.label: "y"
- compound: "O=C(Nc1nc2c(F)cc(F)cc2s1)c1cccnc1"
  answer.label: "n"
- compound: "O=C(Nc1ccc(S(=O)(=O)N2CCCC2)cc1)c1ccc([N+](=O)[O-])o1"
  answer.label: "y"
- compound: "O=C(Nc1ccc(S(=O)(=O)N2CCOCC2)cc1)c1cccs1"
  answer.label: "n"
- compound: "O=C(Nc1ccc(S(=O)(=O)c2ccccc2)cc1)c1ccc([N+](=O)[O-])o1"
  answer.label: "y"
- compound: "O=C(Nc1nc2c(Cl)cc(Cl)cc2s1)c1ccccn1"
  answer.label: "y"
- compound: "Cc1ccc(C(=O)Nc2ccc(S(=O)(=O)N3CCOCC3)cc2)o1"
  answer.label: "n"
- compound: "O=C(Nc1nc2ccccc2s1)c1ccncc1"
  answer.label: "n"
- compound: "O=C(Nc1nc2ccccc2s1)c1ccccn1"
  answer.label: "n"
- compound: "O=C(Nc1ccc(S(=O)(=O)N2CCNCC2)cc1)c1ccc([N+](=O)[O-])o1"
  answer.label: "n"
- compound: "O=C(Nc1ccc(S(=O)(=O)N2CCOCC2)cc1)c1ccc([N+](=O)[O-])cc1"
  answer.label: "n"
- compound: "CC1CCN(S(=O)(=O)c2ccc(NC(=O)c3ccc([N+](=O)[O-])o3)cc2)CC1"
  answer.label: "y"
- compound: "O=C(Nc1nc2c(F)cccc2s1)c1ccccn1"
  answer.label: "y"
- compound: "O=C(Nc1ccc(C(=O)N2CCOCC2)cc1)c1ccco1"
  answer.label: "n"
- compound: "O=C(Nc1nc2ccc(F)cc2s1)c1ccccn1"
  answer.label: "y"
- compound: "Cc1cc(C)c2nc(NC(=O)c3ccccn3)sc2c1"
  answer.label: "y"
- compound: "O=C(Nc1ccc(S(=O)(=O)N2CCOCC2)cc1)c1ccc([N+](=O)[O-])o1"
  answer.label: "y"
- compound: "O=C(Nc1ccc(S(=O)(=O)N2CCOCC2)cc1)c1ccc(Br)o1"
  answer.label: "n"
- compound: "O=C(Nc1ccc(S(=O)(=O)N2CCCCC2)cc1)c1ccc([N+](=O)[O-])o1"
  answer.label: "y"
- compound: "O=C(Nc1nc2c(F)cc(F)cc2s1)c1ccccn1"
  answer.label: "y"
- compound: "O=C(Nc1nc2c(F)cc(F)cc2s1)c1ccccc1"
  answer.label: "n"
